- study_system: T1, fHbp m001929 (Neisseria meningitidis; fHbp …, chimera)
- T1 chain: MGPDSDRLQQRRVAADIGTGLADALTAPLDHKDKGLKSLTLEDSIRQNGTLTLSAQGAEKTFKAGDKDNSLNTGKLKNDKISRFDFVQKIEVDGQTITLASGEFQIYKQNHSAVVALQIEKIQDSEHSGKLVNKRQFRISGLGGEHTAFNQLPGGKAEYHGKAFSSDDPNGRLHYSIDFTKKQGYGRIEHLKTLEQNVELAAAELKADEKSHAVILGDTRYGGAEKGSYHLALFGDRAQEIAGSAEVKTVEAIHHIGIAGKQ
- test_method_notes: BLI
- recorded_conditions: both partners purified
pKd: −log10 of the molar value.
test_readout: pKd

{"columns": ["binder", "test_readout", "readout_number"],
 "data": [
  ["chimeric antibody hJAR5 (antibody, V domains shown, also called hJAR5-2; humanized JAR5; source: Expi293, purified (MabSelect SuRe, SEC); copies: 2 + 2) VH: QVQMQQPGAELVKPGASVKLSCKASGYTFISYWMHWVKQRPGRGLEWIGRIAPDTGIIYYNEKFKNKATLTVDTPSSTAYMQLNSLTSEDSAVYYCARYLKYDGSTYRFDYWGQGTTLTVSS VL: DIVMTQAAPSVPVTPGESVSISCRSSKSLLHSNGNTYLFWFLQRPGQSPQLLIYRMSNLASGVPDRFSGSGSGTSFTLRISRVEAEDVGVYYCMQHLEYPYTFGGGTKLEIK", "pKd", 9.46]
]}
